System: UACC-257
Experiment: NCI tumour cell line growth inhibition, 48 h
Active and inactive are the calls of the source. Cut-off read from the data, not from the text of the source: active = GI50 up to about 1.1 µM and inactive = higher.
Give one outcome, nothing more. List: active, inactive

compound	assayed.target	assigned.label
Cc1cc(C)c2c(c1)CC1(Cc3cc(C)c(C)cc3C1=O)C2=O (stereo unspecified)	UACC-257	inactive
COC(=O)/C=C/CCC#Cc1ccccc1C#CCC/C=C/C(=O)OC	UACC-257	inactive
CC(Cn1c2c(c3cc(O)ccc31)CCc1ccc(O)cc1-2)N(C)C (stereo unspecified)	UACC-257	inactive
CC(C)(C)NC(NC(C)(C)C)=C(/C=C(/Cl)[N+](=O)[O-])[N+](=O)[O-]	UACC-257	inactive
COC1=C2C[C@@H](C)C[C@@H](OC)[C@@H](O)[C@H](C)/C=C(\C)[C@@H](OC(N)=O)[C@H](OC)/C=C\C=C(/C)C(=O)NC(=CC1=O)C2=O	UACC-257	active

[ask] Dear all, I need the recorded test outcome for CC(=O)c1c(SCCN2CCCC2)n(-c2ccccc2)c(=S)n(-c2ccccc2)c1=O , thank you.
[reply] inactive

[ask] Called result for COc1cc(OC)c(-n2[nH]c(=O)n(C)c2=O)c(OC)c1
[reply] inactive

[ask] Please share the test call associated with O=c1c2ccccc2n2c(-c3ccccc3O)nnc2n1-c1ccccc1 .
[reply] inactive

[ask] For O=C(CCCCCCCCCCc1ccccc1)C1=C(O)CC(O)CC1=O (stereo unspecified) , which call appears in the assay record?
[reply] inactive

[ask] GET /call?item= O=C(c1cccnc1)N1N=C(c2ccccc2)CC1(O)c1cc(F)c(Cl)cc1Cl (stereo unspecified) returns the recorded outcome of this test.
[reply] inactive

---

System: SK-MEL-5
Experiment: NCI tumour cell line growth inhibition, 48 h
Activity calls are given as the source filed them. No stated cut-off is given here; in the data, active = GI50 up to about 1.1 µM and inactive = higher.
measurement.type: GI50

molecule	GI50
CC(C)C(=S)N(C)O	8.02 µM (inactive)
Cc1ccc(-c2cc(N)n(-c3nc4c(c(=O)n(C)c(=O)n4C)n3C)n2)cc1	32.4 µM (inactive)
CC(C)(C)C(=O)ON1N=NC2C3CC(OCc4ccccc4)(OCc4ccccc4)C(O3)C21 (stereo not given)	15.6 µM (inactive)

For O=c1cc(-c2ccccc2)[nH]c2cc(F)cc(F)c12 the molecule record lists GI50 as 10.1 µM (inactive)

What the record says about CC(=O)OCC1OC(OCCCOP(=O)(OCCC#N)OCC2OC(n3cnc4c(N)ncnc43)C(OC(=O)c3ccccc3)C2OC(=O)c2ccccc2)C(OC(C)=O)C(OC(C)=O)C1OC(C)=O (stereo not given) : GI50 is > 100 µM (inactive)

---

System: OVCAR-8
Test: NCI tumour cell line growth inhibition, 48 h
The source made the active and inactive calls. Cut-off read from the data, not from the text of the source: active = GI50 up to about 1.1 µM and inactive = higher.
Returns: one label drawn from t (active), f (inactive)

Solved entries (count: 5):
compound	assigned.label
CNc1ccc(-c2nc3cc(C)ccc3o2)cc1	f
O=c1c(C(c2ccccc2)c2c(O)oc3cc(O)ccc3c2=O)c(O)oc2cc(O)ccc12	f
O=c1c2c(nc3[nH]ccn13)CCCC2	f
COc1cc(OC)c(-n2[nH]c(=O)n(C)c2=O)c(OC)c1	f
C[C@H]1CC[C@@]2(NC1)O[C@H]1C[C@H]3[C@@H]4CC[C@H]5C[C@@H](O)CC[C@]5(C)[C@H]4CC[C@]3(C)[C@H]1[C@@H]2C	f

[ask] Kindly provide the recorded test outcome for the following compound: Cc1c2cc[n+](COC(=O)c3ccccc3)cc2c(C)c2c1[nH]c1ccccc12
[reply] t

[ask] Outcome? CC1(C)C2CCC1(C)C(NC(=O)CCN1CCOCC1)C2 (stereo not given)
[reply] f

[ask] Hi team, can someone confirm the assay call for CC1=CC2CCC1(C)C/C2=C(/C)OC=O (stereo not given) ?
[reply] f

[ask] Dear all, I need the recorded test outcome for C/C(=C1/CCC/C(=C(/C)c2ccccc2)C1=O)c1ccccc1 , thank you.
[reply] f

[ask] For COC(=O)[C@@]12C(=O)C(C)C(=O)[C@]1(C)C(C)=C[C@H]1[C@]3(C=O)CC[C@H](OC(C)=O)C(C)(C)[C@H]3CC[C@@]12C (stereo not given in full) , what call appears in the results of this test?
[reply] f

[ask] Status in this test for CC(C)CNC(=O)Cn1c(-c2ccccc2)cc2ccccc21 ?
[reply] f

---

Tested on: SNB-75
Assay: NCI tumour cell line growth inhibition, 48 h
Activity calls are given as the source filed them. Rule as the data show it: active = GI50 up to about 1.1 µM and inactive = higher.
Parameter call: string, one of active, inactive

compound	assayed.target	assigned.label
CC[C@]12C=CCN3CCC4(c5cc([C@@]6(C(=O)OC)CC7CN(CCc8c6[nH]c6ccccc86)C[C@@H]6CCC[C@H]76)c(OC)cc5N(C)C4[C@](O)(C(=O)OC)C1OC(C)=O)C32 (stereo partly specified)	SNB-75	active
Cc1ccc(C(=O)C(Cl)C(Cl)c2ccc(C)cc2)cc1 (stereo unspecified)	SNB-75	inactive
NC1CCCCC1.O=P(O)(O)C1(P(=O)(O)O)CC1	SNB-75	inactive

[ask] Test call, this compound: CCC(Oc1ccc(OC)c2c1C(=O)CCC2)C(=O)O (stereo unspecified)
[reply] inactive

[ask] Kindly provide the recorded test outcome for the following compound: COC1OC2COC1(OCc1ccccc1)C1OC(C)(C)OC21 (stereo unspecified)
[reply] inactive

[ask] # outcome recorded in this test, key = O=c1ccc2nc3ccc(O)cc3oc-2c1
[reply] inactive

[ask] Recorded test outcome, item CC(C)N1CCC2(CC1)NNc1ncccc1-n1cccc12
[reply] inactive

[ask] Status in this test for Cc1ccc2c(c1)C(=O)c1[nH]c3ccc(F)cc3c1CO2 ?
[reply] inactive

[ask] Just curious, what result did CCOc1cc2c(cc1O)CC[C@@H]1[C@@H]2CC[C@]2(C)C(OS(=O)OC3CC[C@@H]4[C@H]5CCc6cc(O)c(OCC)cc6[C@@H]5CC[C@@]34C)CC[C@@H]12 (stereo partly specified) get here?
[reply] active

[ask] // return assay outcome for O=C(/C=C/c1cc(F)ccc1F)OCCc1ccccc1
[reply] inactive

[ask] Given CNC(=O)NCCN1N=C(C)/C(=C\c2ccccc2)CC1=O , state the outcome it received in this test.
[reply] inactive

[ask] What outcome does the record of this test show for N#[N+]c1ccccc1Sc1ccc(Cl)cc1 ?
[reply] inactive

[ask] # fetch the recorded call for Cc1cc2c(cc1Cl)SC(NNC(=O)c1ccncc1)=NS2(=O)=O here
[reply] inactive

[ask] # fetch the recorded call for C=C1CC[C@H](O)C(C)(C)[C@@H]1CC/C(C)=C/CC/C=C(\C)CC/C=C(\C)CCC=C(C)C here
[reply] inactive

[ask] What call does the record list for c1ccc2c(c1)ccn2CCc1c[nH]c2ccccc12 ?
[reply] inactive

[ask] # outcome recorded in this test, key = CC12CCC(CC1(Cl)Cl)C2 (stereo unspecified)
[reply] inactive

[ask] Look up the recorded call for CCOC(=O)C1=C(OC(OCC)C(CC)[Se]c2ccccc2)CCCC1 (stereo unspecified) in this test.
[reply] inactive

[ask] Please let me know the test result on file for O=C(CN1C(=O)CC(c2ccccc2)(c2ccccc2)C1=O)N1CCN(CCO)CC1 .
[reply] inactive

[ask] For CC1(C)C2CCC1(C)C(NC(=O)CCN1CCOCC1)C2 (stereo unspecified) , what call appears in the results of this test?
[reply] inactive

[ask] Call for entry N#CC(C(=O)CCC(=O)Nc1cccc(C(F)(F)F)c1)c1ccccc1 (stereo unspecified) :
[reply] inactive

[ask] Outcome? COC(=O)/C=C/CCC#Cc1ccccc1C#CCC/C=C/C(=O)OC
[reply] inactive

---

Test system: A498
Assay: NCI tumour cell line growth inhibition, 48 h
Active and inactive are the calls of the source. Rule as the data show it: active = GI50 up to about 1.1 µM and inactive = higher.
GI50 listing for selected molecules.

Recorded GI50, per entry:
Clc1ccc(-c2cn3c(nc4ccccc43)c(/C=C/c3ccco3)n2)cc1 29.5 µM (inactive)
CN(N)C(=O)NCCCl > 100 µM (inactive)
CNc1ccc(-c2nc3cc(C)ccc3o2)cc1 27.4 µM (inactive)
CC(=O)CC(=O)/C=C/c1cccs1 64.9 µM (inactive)
CC(C)(C)C(=O)C(C(=O)C(C)(C)C)C(=O)C(C)(C)C > 100 µM (inactive)

Entry CN(CCCNC(=O)c1cn(C)c2c1ccc1cc(Cl)ccc12)CCCNC(=O)c1cn(C)c2c1ccc1cc(Cl)ccc12 — recorded GI50 = 5.86 µM (inactive)

// GI50 value for CC(C)C(/C=C/c1ccc(Cl)cc1)=N\NC(=S)NN : 23.8 µM (inactive)

Briefly, GI50 measured for Cc1ccc2nc(/C=N/c3ccccc3Cl)cc(C)c2c1 : > 100 µM (inactive)

response.value for O=C1c2cc(Cc3ccccc3)c(=O)c(Cc3ccccc3)cc2C(=O)c2cc(Cc3ccccc3)c(=O)c(Cc3ccccc3)cc21 (field: GI50) = > 100 µM (inactive)

The recorded GI50 for O=C(O)CCCNS(=O)(=O)c1ccccc1 is > 100 µM (inactive)

Per the records, this molecule ( Oc1cc(-c2ccc3ccccc3c2)nc2ncccc12 ) has GI50 equal to 7.23 µM (inactive)
